System: SW-620
Experiment: NCI tumour cell line growth inhibition, 48 h
Active and inactive are the calls of the source. Cut-off read from the data, not from the text of the source: active = GI50 up to about 1.1 µM and inactive = higher.
Below: a set of entries, each annotated with reported GI50.

Solved cases (6 shown):
- O=C(NCCCN1CCN(CCCNC(=O)c2cccc3ccccc23)CC1)c1cccc2ccccc12: > 100 µM (inactive)
- C=CCCCCn1c2ccccc2c2c(C)c3cnccc3c(C)c21: 4.54 µM (inactive)
- CC1(c2nc3ccccc3[nH]2)CCC(CO)C(C)(C)O1 (configuration not stated): > 100 µM (inactive)
- CCc1ccc(/N=C\c2cc(OC)c(OC)c(OC)c2)cc1: 10.9 µM (inactive)
- COC(=O)C1C=NNC1C(=O)OC (configuration not stated): > 100 µM (inactive)
- COc1ccc(C2=C3c4cc(OC)c(OC)cc4CCN3C(=S)SS2)cc1OC: 95.9 µM (inactive)

Kindly consider the entry below.
**Q:** For the compound `CN(C)c1ccc(C(=N/N=C2\C(=O)Nc3ccccc32)c2ccc(N(C)C)cc2)cc1` , give its measured GI50 value.
**A:** 0.247 µM (active)

# credit: ChEMBL document CHEMBL1201862
